Attribution: PubChem BioAssay (NCI)

Here, each record is paired with measured growth data.
- Test system: LOX IMVI melanoma
- experimentalProtocol: NCI-60 one-dose screen, 48 h (100 = growth as untreated, 0 = no growth, -100 = all killed)
- settings: 10 µM unless noted
This is part of a sample that, as a whole, favours compounds with a hit. Of some 83,000 tested, about 20% had one in any assay.

molecule	growth [%]
COc1cccc(Nc2ncnc3cc(NC(=O)CCl)ccc23)c1	-74.6
COC(=O)C(Cc1ccccc1)NC(=O)c1ccc(NC(=O)c2[nH]c(C)c(Cl)c2Cl)c(OC(C)C)c1 (stereo unspecified)	34.1
Cc1ccc(C)c(/C=C2\CN(C(=O)OC(C)(C)C)C/C(=C\c3cc(C)ccc3C)C2=O)c1	0.926
CN(C)S(=O)(=O)Oc1ccc(-c2sc3cc(OS(=O)(=O)N(C)C)ccc3c2C(=O)c2ccc(OCCN3CCCCC3)cc2)cc1	32.7
Cc1ccc(N2C(=O)CCC2=O)cc1	102
CC1=CC(c2ccco2)=C2C(N)=NNC2N1 (stereo unspecified)	98.3
O=C1/C(=C\c2ccccn2)c2ccccc2N1c1c(Cl)cccc1Cl	-89.2
CS(=O)(=O)c1ccc(NC(=O)c2ccccc2)nc1	98.6
COc1ccc2c(c1)c(/C(O)=C1\COC(=O)C1=O)cn2Cc1ccc(F)cc1	100
O=C1/C(=C/c2ccc(O)c(O)c2)COc2ccc(-c3ccccc3)cc21	4.79
CNC1=CC(=O)c2c(C(=O)OC)c(C)[n+]([O-])c(C)c2C1=O	34.4
N#Cc1c(-c2ccccc2)nc(SCC(O)CN2CCOCC2)nc1N1CCOCC1 (stereo unspecified)	78
O=C(O)c1ccc(-c2ccc(/C=N/Nc3nc(Nc4ccccc4)nc(N4CCCCC4)n3)o2)cc1	68.6
CCCn1nc(C(=O)N(C)Cc2ccccc2)c2c1CCC(N1CCc3ccccc31)C2 (stereo unspecified)	100
CCNC(=O)Oc1ccc(/C(=C(/C)Cc2ccc(OC)cc2)c2ccc(OCCN3CCCCC3)cc2)cc1	60.9
CC(=O)OC[C@]12CC[C@@H]([C@@H](C)c3nnc(-c4ccncc4)o3)[C@@H]1[C@H]1CC[C@@H]3[C@@]4(C)CC[C@H](OC(C)=O)C(C)(C)[C@@H]4CC[C@@]3(C)[C@]1(C)CC2	77.2
